FYI, the data here is from the supplement of paper PMC10567573.

B1: PLK2 (parent)
chain: MELLRTITYQPAASTKMCEQALGK

variants of: B1; assay: protein stability index of a GFP-peptide fusion (GPS, HEK-293T) (PSI 1-6); higher = more stable; conditions: c terminus: a fixed tail appended;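 note: lentivirally expressed fusions sorted by FACS into six bins by GFP to DsRed ratio, PSI derived from sequencing read proportions per bin multiplied by bin number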
The entries below come with measured protein stability index values attached.
measured_endpoint: protein stability index

>>> measured_result("T6R")
2.04
>>> measured_result("L4R")
3.26
>>> measured_result("L3K")
1.37
>>> measured_result("S14M")
2.33
>>> measured_result("A12F")
2.97
>>> measured_result("Q10H")
1.81
>>> measured_result("R5G")
3.02
>>> measured_result("L3M")
3.04
>>> measured_result("M1L")
2.37
>>> measured_result("E19R")
2.59
>>> measured_result("T6D")
3.2
>>> measured_result("P11E")
1.91
>>> measured_result("I7D")
4.13
>>> measured_result("K16T")
2.55
>>> measured_result("A12H")
2.41
>>> measured_result("P11F")
2.52
>>> measured_result("M17W")
2.46
>>> measured_result("K16R")
2.07
>>> measured_result("T8Y")
2.93
>>> measured_result("I7F")
1.94
